Would you mind telling me the reported koff of each entry?
target.desc: T1, recombinant human 4R0N tau (human, UniProt P10636 2-758)
T1 construct: also called recombinant 4R0N human tau; P10636-6
test.details: SPR Biacore T200; antibody captured by anti-human Fc; tau as analyte; global 1:1 fit
Give the value, in units of s⁻¹, as a plain number.

## Task Give the reported value of koff for this record: hu9F5VHv9/hu9F5VLv8_DIM3 (antibody, V domains shown) VH: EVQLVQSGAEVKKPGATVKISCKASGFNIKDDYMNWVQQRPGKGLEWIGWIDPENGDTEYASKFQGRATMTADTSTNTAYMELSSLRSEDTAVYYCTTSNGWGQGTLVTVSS VL: DIQMTQSPFSLPVTPGESASISCRSSKSLSHSNGITYLYWYQQKPGQSPQLLIYQGSNTASGVPNRFSSSGSGTDFTLKISRVEAEDVGVYYCAQNIELPLTFGQGTKLEIK
## Result 0.00068

## Task Give the reported value of koff for this record: hu9F5VHv9/hu9F5VLv8_DIM16 (antibody, V domains shown) VH: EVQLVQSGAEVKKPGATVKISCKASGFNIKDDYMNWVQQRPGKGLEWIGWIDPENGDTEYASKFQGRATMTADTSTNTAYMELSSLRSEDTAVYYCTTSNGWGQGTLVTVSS VL: DIQMTQSPFSLPVTPGESASISCRSSKSLGHSNGITYLYWYGQKPGQSPQLLIYQGSNTASGVPNRFSSSGSGTDFTLKISRVEAEDVGVYYCAQNLELPLTFGQGTKLEIK
## Result 0.000808
